# T/C values compiled below
- System: P388 leukemia ip, CD2F1 mice, survival T/C
- method.description: NCI In Vivo Anticancer Drug Screen. Data for tumor model P388 Leukemia (intraperitoneal) in CD2F1 (CDF1) mice
- settings: endpoint: median survival time; dose: 100.0 mg/kg/injection; schedule: Q01DX009 (ip); vehicle: saline with Tween-80; higher = longer survival
Toxic doses and inconclusive results are not listed.
measured.quantity: T/C

molecule: COc1ccc2c(c1OC)C(C(Cl)(Cl)Cl)N1CCc3cc4c(cc3C1=C2)OCO4 (configuration not stated)
measurement: 90 % of control

molecule: Nc1nc(Cl)c(C=O)c(Cl)n1
measurement: 115 % of control

molecule: O=C(Nc1nc2c(Cl)cccc2s1)C(F)(F)C(F)(F)C(F)(F)F (tested in a mixture with another compound)
measurement: 101 % of control

molecule: O=c1nc(-c2ccc3c(c2)OCO3)sc(=O)[nH]1
measurement: 107 % of control

molecule: CN1CC(CO)=CC2c3cccc4[nH]cc(c34)CC21 (configuration not stated)
measurement: 104 % of control

molecule: N#CN=CN1CCC(Cc2ccccc2)CC1
measurement: 101 % of control

molecule: CNC(=S)N/N=C/c1ccccc1
measurement: 117 % of control

molecule: CCCC/C=C/[Se]c1ccccc1
measurement: 109 % of control

molecule: COc1ccc(C(c2c(O)cc(C)[nH]c2=O)c2c(O)cc(C)[nH]c2=O)cc1F
measurement: 96 % of control

molecule: Nc1ccc2c(c1)C(=O)CCC2
measurement: 99 % of control

molecule: CNC(=O)OCc1ccccc1-c1ccccc1
measurement: 97 % of control

molecule: O=[N+]([O-])c1ccc2nc3c4ccccc4c4ccccc4c3nc2c1
measurement: 105 % of control

molecule: CC(=O)Nc1nc(N)nc(N)n1
measurement: 103 % of control

molecule: O=C1CN(c2ccccc2)C(=O)CN1/N=C/c1ccc(Cl)cc1
measurement: 99 % of control

molecule: CN(C)C(=S)SC1OC(CO)C(OC2OC(CO)C(O)C(O)C2O)C(O)C1O (configuration not stated)
measurement: 90 % of control

molecule: COc1cc2ccc3c(c2cc1OC)C=[N+](C)CC3
measurement: 109 % of control

molecule: Nc1ncnc2c1c(C(=O)O)cn2C1OC(CO)C(O)C1O (configuration not stated)
measurement: 86 % of control

----------
The following compounds are listed with their measured T/C values.
- Test system: P388 leukemia ip, CD2F1 mice, survival T/C
- method.description: NCI In Vivo Anticancer Drug Screen. Data for tumor model P388 Leukemia (intraperitoneal) in CD2F1 (CDF1) mice
- settings: endpoint: median survival time; dose: 200.0 mg/kg/injection; schedule: Q01DX009 (ip); vehicle: saline with Tween-80; higher = longer survival
Inconclusive results and toxic doses are left out.

compound: COC1/C=C/OC2(C)Oc3c(C)c(O)c4c(O)c(c(/C=N/N5C(C)CN(Cc6ccc(O)cc6)CC5C)c(O)c4c3C2=O)NC(=O)C(C)=C/C=C/C(C)C(O)C(C)C(O)C(C)C(OC(C)=O)C1C (configuration not stated)
experimental.system: P388 leukemia ip, CD2F1 mice, survival T/C
T/C: 96 % of control

compound: COc1c(OC(C)=O)ccc2c1C=CCCC2=O
experimental.system: P388 leukemia ip, CD2F1 mice, survival T/C
T/C: 102 % of control

compound: Cc1ccc(/C=N\N=C\c2ccc(C)cc2)cc1
experimental.system: P388 leukemia ip, CD2F1 mice, survival T/C
T/C: 90 % of control

compound: O=[N+]([O-])c1ccc2nc3c4ccccc4c4ccccc4c3nc2c1
experimental.system: P388 leukemia ip, CD2F1 mice, survival T/C
T/C: 104 % of control

compound: Nc1ccc2c(c1)C1(CCC2)NC(=O)NC1=O (configuration not stated)
experimental.system: P388 leukemia ip, CD2F1 mice, survival T/C
T/C: 105 % of control

compound: C1SSCSSS1
experimental.system: P388 leukemia ip, CD2F1 mice, survival T/C
T/C: 111 % of control

compound: C(=NC12CC3CC(CC(C3)C1)C2)C12CC3CC(CC(C3)C1)C2
experimental.system: P388 leukemia ip, CD2F1 mice, survival T/C
T/C: 96 % of control

compound: CC(C)C(=O)Nc1ccc(S(=O)(=O)Nc2ccc(N)cc2O)cc1
experimental.system: P388 leukemia ip, CD2F1 mice, survival T/C
T/C: 104 % of control

compound: Cc1cc(Cl)ccc1N=Cc1ccc(OCc2ccccc2)cc1
experimental.system: P388 leukemia ip, CD2F1 mice, survival T/C
T/C: 88 % of control

compound: CN1NC(C)(c2ccccn2)SC1=S (configuration not stated)
experimental.system: P388 leukemia ip, CD2F1 mice, survival T/C
T/C: 90 % of control

compound: Cc1ccc(CO)c2ccccc12
experimental.system: P388 leukemia ip, CD2F1 mice, survival T/C
T/C: 96 % of control

compound: O=C1CSC(=S)N1CCCN1CCOCC1
experimental.system: P388 leukemia ip, CD2F1 mice, survival T/C
T/C: 101 % of control

compound: Nc1ccc2c(n1)NCC/C2=N\Nc1ccc(Br)cc1
experimental.system: P388 leukemia ip, CD2F1 mice, survival T/C
T/C: 106 % of control

compound: CC1=NN(C(=O)c2ccncc2)C(=O)C1N=Nc1ccc(S(=O)(=O)Nc2nc(C)cc(C)n2)cc1 (configuration not stated)
experimental.system: P388 leukemia ip, CD2F1 mice, survival T/C
T/C: 95 % of control

compound: NCc1nnn(Cc2ccccc2)c1N
experimental.system: P388 leukemia ip, CD2F1 mice, survival T/C
T/C: 92 % of control

compound: O=S(=O)(Cc1cccc(C(F)(F)F)c1)c1nc2cccnc2s1
experimental.system: P388 leukemia ip, CD2F1 mice, survival T/C
T/C: 101 % of control

compound: CC(=O)Nc1nc(N)nc(N)n1
experimental.system: P388 leukemia ip, CD2F1 mice, survival T/C
T/C: 88 % of control

compound: Oc1nc(-c2ccccc2)sc1-c1ccc(Cl)cc1
experimental.system: P388 leukemia ip, CD2F1 mice, survival T/C
T/C: 98 % of control

compound: O=C(CBr)Nc1c(Br)cc(F)cc1Br
experimental.system: P388 leukemia ip, CD2F1 mice, survival T/C
T/C: 100 % of control

compound: CC(=O)C1CC2C=CC1N(C1=CC(=O)CC(C)(C)C1)C2=O (configuration not stated)
experimental.system: P388 leukemia ip, CD2F1 mice, survival T/C
T/C: 100 % of control

compound: O=Cc1ccc2nc(C(Cl)(Cl)Cl)ccc2c1
experimental.system: P388 leukemia ip, CD2F1 mice, survival T/C
T/C: 100 % of control

compound: O=C1C(C2=CCCCC2)CCCC1C1=CCCCC1 (configuration not stated)
experimental.system: P388 leukemia ip, CD2F1 mice, survival T/C
T/C: 104 % of control

compound: C=CCNC(=O)c1ccccc1SC(C)=O
experimental.system: P388 leukemia ip, CD2F1 mice, survival T/C
T/C: 114 % of control

compound: Clc1ccc(Cl)c(N=NNc2cc(Cl)ccc2Cl)c1
experimental.system: P388 leukemia ip, CD2F1 mice, survival T/C
T/C: 88 % of control

compound: O=C(N=c1nc2ccccn2s1)c1ccccc1
experimental.system: P388 leukemia ip, CD2F1 mice, survival T/C
T/C: 104 % of control

compound: COC(=O)c1[nH]c(=O)c2ccc([N+](=O)[O-])cc2c1O
experimental.system: P388 leukemia ip, CD2F1 mice, survival T/C
T/C: 86 % of control

compound: CC1=CC=CC(C)(C(Cl)Cl)C1=O (configuration not stated)
experimental.system: P388 leukemia ip, CD2F1 mice, survival T/C
T/C: 109 % of control

compound: c1ccc2cc3c(ccc4ccccc43)cc2c1
experimental.system: P388 leukemia ip, CD2F1 mice, survival T/C
T/C: 103 % of control

compound: Nc1cc(Cl)c(Cl)c(Cl)c1N
experimental.system: P388 leukemia ip, CD2F1 mice, survival T/C
T/C: 102 % of control

compound: CNC(=S)N/N=C/c1ccccc1
experimental.system: P388 leukemia ip, CD2F1 mice, survival T/C
T/C: 100 % of control

compound: CN(CCl)S(=O)(=O)c1ccccc1
experimental.system: P388 leukemia ip, CD2F1 mice, survival T/C
T/C: 100 % of control

compound: Cc1ncn2c(C)nnc2c1C
experimental.system: P388 leukemia ip, CD2F1 mice, survival T/C
T/C: 102 % of control
